- Test system: SK-MEL-2 melanoma
- Protocol Details: NCI tumour cell line growth inhibition, 48 h; in the data active = GI50 below about 0.43 µM; inactive = the rest
Please answer using one outcome listed in Yes for active, No for inactive

Known results for molecules:
*Q* GET /call?item= Cc1ccc(C(=O)N(CCCN)C(c2oc3cc(Cl)ccc3c(=O)c2Cc2ccccc2)C(C)C)cc1 (stereo not given) returns the recorded outcome of this test.
*A* Yes

*Q* Continue with "Cc1ccc2c(c1)Sc1c(ccc3ccccc13)N2"
*A* No

*Q* Continue with O=C1CCC(N2C(=O)c3ccccc3C2=O)C(=O)N1CO (stereo not given)
*A* No

*Q* Continue with "COc1cc2cc(Oc3ccc(NC(=O)Nc4ccc(Cl)c(C(F)(F)F)c4)cc3)c(C)nc2cc1OCCN1CCOCC1"
*A* No

*Q* Continue with "O=C(Nc1ccncc1)C(=O)c1cn(S(=O)(=O)c2cccc(F)c2)c2ccccc12"
*A* No

***
*Q* GET /call?item= "C=C(C[C@](O)(C(=O)/C=C/c1ccc(Cl)cc1)C(=O)OC)c1ccccc1" returns the recorded outcome of this test.
*A* No

*Q* Continue with "N#CC(C#N)=C1Nc2ccccc2S1"
*A* No

*Q* Continue with "Cc1ccc(-c2nc3nc(-c4ccccc4)nc(N4CCCNCC4)c3o2)cc1"
*A* No

*Q* Continue with "O=C1Nc2ccccc2C1(c1ccc(O)cc1)c1ccc(O)cc1"
*A* No

*Q* Continue with NC(=O)NS(=O)(=O)c1ccc(N2N=C(C(F)(F)F)CC2c2cc(C(F)(F)F)cc(C(F)(F)F)c2)cc1 (stereo not given)
*A* No

---

- Test system: K-562 leukemia
- Protocol Details: NCI tumour cell line growth inhibition, 48 h
Form field: TGI (one value per entry).

Solved cases below.
*Q* Lab note: need TGI with K-562 leukemia for entry "O=C1c2ccccc2C(=O)c2c1cc(S(=O)(=O)O)c(O)c2O" , please look it up.
*A* > 100 µM

*Q* Continue with "COc1ccc(-c2nc(-c3nc4ccc(Cl)cc4[nH]3)c3ccccn23)cc1"
*A* 80.1 µM

***
*Q* Lab note: need TGI with K-562 leukemia for entry "COc1ccc2c(c1)C(=O)c1c-2n(CCCn2ccnc2)c(=O)c2cc([N+](=O)[O-])ccc12" , please look it up.
*A* > 100 µM

*Q* Continue with "CCOC(=O)/C(=C\c1ccccc1)C(=O)O"
*A* > 100 µM

*Q* Continue with "O=C1c2ccccc2C(=O)N1CCc1ncc[nH]1"
*A* > 100 µM

*Q* Continue with COC1(C)CP(=O)(OC(C)C)CC(C)=C1Cl (stereo not given)
*A* 7.89 µM

*Q* Continue with "O=[N+]([O-])c1ccc(C=NC2CCCCC2)cc1"
*A* > 100 µM

---

- Test system: M19-MEL melanoma
- Protocol Details: NCI tumour cell line growth inhibition, 48 h
Assay Endpoint: TGI

*Q* Entry "O=C(NC12CC3CC(CC(F)(C3)C1)C2)c1ccccc1" : reported TGI = ?
*A* > 100 µM

*Q* Continue with "CC(C)(C)c1cc(CCC(=O)Nc2ccc(Cl)cc2)nc(NC#N)n1"
*A* > 100 µM

*Q* Continue with "COc1ccc2nc3c(C(=O)NCCN(C)C)cccc3nc2c1"
*A* 22.2 µM

---

- Tested on: RPMI-8226 leukemia
- Protocol Details: NCI tumour cell line growth inhibition, 48 h; in the data active = GI50 below about 0.43 µM; inactive = the rest
Please answer using one outcome listed in class 1 (active), class 0 (inactive)

*Q* GET /call?item= "COc1ccc(-c2onc(N)c2-c2cc(OC)c3c(c2)OCO3)cc1" returns the recorded outcome of this test.
*A* class 0

***
*Q* GET /call?item= O=C1CCC(N2C(=O)c3ccccc3C2=O)C(=O)N1CO (stereo not given) returns the recorded outcome of this test.
*A* class 0

*Q* Continue with Cc1cc2c(cc1Cl)SC1=NN(C)S(=O)N1S2(=O)=O (stereo not given)
*A* class 0

*Q* Continue with "CCCn1c(=S)sc2c1nc(C)n1c(Nc3ccccc3)nnc21"
*A* class 0

*Q* Continue with "COc1cc[nH]c1/C=C1\C(=O)Nc2ccc(F)c(C#CC3(O)CCNCC3)c21"
*A* class 1

*Q* Continue with "N#CC(C#N)=C1Nc2ccccc2S1"
*A* class 0

*Q* Continue with "Cc1ccc2c(c1)Sc1c(ccc3ccccc13)N2"
*A* class 0

*Q* Continue with CCOC1Oc2ccc(C)cc2C(=O)/C1=C\Nc1ccc(C(N)=O)cc1 (stereo not given)
*A* class 0

*Q* Continue with "O=c1cc(-c2ccccc2)oc2cc(OC/C(=N/O)c3ccccc3)ccc12"
*A* class 0

*Q* Continue with "COc1cc2ncn(-c3cc(OCc4cccs4)c(C(N)=O)s3)c2cc1OC"
*A* class 0
